Target: BTK (Homo sapiens)
Sequence (Q06187 whole entry): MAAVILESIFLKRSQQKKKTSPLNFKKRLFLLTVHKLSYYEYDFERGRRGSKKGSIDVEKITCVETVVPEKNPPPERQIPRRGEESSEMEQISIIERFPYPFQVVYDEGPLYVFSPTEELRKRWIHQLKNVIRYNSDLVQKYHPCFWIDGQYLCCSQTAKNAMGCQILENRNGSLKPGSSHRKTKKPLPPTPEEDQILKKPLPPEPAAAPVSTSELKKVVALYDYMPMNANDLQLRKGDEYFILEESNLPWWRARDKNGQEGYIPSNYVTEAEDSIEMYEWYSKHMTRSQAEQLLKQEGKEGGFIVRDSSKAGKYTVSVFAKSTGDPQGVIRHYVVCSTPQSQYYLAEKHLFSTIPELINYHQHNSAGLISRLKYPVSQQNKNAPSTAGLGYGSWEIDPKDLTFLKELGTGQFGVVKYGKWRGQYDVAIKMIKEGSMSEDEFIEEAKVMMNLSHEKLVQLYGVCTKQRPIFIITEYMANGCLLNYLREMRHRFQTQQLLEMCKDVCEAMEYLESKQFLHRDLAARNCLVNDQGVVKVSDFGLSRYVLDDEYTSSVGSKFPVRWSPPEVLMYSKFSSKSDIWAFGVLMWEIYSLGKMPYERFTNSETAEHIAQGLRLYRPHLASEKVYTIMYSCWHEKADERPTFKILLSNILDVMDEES
testReadout: IC50

Form field: reported IC50 of CC(C)CCN[C@@H]1CCc2cc(O)c(N3CC(=O)NS3(=O)=O)c(F)c2C1 > 10 µM

* * *

Biological target: Zipk (Homo sapiens, UniProt O43293)
Sequence (O43293 whole entry): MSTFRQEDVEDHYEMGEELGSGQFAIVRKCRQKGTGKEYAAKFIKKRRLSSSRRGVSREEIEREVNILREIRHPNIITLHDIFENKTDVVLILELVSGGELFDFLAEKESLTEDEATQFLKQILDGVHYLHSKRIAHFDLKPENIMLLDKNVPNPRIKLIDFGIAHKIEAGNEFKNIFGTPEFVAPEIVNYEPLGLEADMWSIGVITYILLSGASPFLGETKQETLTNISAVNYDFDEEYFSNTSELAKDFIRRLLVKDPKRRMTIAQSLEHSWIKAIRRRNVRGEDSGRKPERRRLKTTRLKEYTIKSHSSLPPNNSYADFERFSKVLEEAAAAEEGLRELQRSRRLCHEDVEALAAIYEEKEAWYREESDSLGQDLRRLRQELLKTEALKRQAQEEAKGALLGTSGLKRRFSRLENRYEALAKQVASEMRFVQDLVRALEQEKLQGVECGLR
testReadout: IC50

Any idea what its IC50 is? The compound is CC(C)CCN[C@@H]1CCc2cc(O)c(N3CC(=O)NS3(=O)=O)c(F)c2C1 > 10 µM

* * *

Molecular target: UniProtKB Q9UL54
Sequence (Q9UL54 1-1235): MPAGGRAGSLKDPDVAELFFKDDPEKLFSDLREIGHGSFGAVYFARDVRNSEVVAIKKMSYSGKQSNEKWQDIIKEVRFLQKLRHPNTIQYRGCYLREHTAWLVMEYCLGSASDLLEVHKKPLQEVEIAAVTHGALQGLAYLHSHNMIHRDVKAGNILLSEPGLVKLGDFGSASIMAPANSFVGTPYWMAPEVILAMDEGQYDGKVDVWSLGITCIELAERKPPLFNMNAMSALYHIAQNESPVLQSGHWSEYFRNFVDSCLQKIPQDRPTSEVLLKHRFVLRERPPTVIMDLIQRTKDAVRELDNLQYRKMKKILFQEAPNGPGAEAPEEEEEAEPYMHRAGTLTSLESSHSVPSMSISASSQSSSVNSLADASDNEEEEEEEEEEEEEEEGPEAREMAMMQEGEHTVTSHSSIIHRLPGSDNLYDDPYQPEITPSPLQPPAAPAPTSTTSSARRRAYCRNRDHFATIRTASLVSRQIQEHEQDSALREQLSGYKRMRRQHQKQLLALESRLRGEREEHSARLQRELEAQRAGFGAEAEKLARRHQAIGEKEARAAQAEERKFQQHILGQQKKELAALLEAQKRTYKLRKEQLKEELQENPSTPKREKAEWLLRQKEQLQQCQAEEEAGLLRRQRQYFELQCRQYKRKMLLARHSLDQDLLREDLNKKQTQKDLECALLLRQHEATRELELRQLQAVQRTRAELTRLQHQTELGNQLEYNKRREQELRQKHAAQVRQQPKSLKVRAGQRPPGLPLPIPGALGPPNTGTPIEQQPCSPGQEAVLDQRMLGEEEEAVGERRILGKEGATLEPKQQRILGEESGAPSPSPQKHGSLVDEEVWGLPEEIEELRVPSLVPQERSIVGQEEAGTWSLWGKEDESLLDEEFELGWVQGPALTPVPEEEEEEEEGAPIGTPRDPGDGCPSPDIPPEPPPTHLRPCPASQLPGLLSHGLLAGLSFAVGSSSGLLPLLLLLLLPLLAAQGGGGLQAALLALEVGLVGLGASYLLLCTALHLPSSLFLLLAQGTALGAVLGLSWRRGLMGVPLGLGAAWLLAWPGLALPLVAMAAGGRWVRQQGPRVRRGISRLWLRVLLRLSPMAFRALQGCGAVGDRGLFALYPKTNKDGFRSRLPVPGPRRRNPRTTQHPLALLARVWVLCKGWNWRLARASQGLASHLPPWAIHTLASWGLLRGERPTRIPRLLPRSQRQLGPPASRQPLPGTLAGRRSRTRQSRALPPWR
pIC50: −log10 of the molar value.
testReadout: pIC50

pIC50 lookup needed for CC(C)CCN[C@@H]1CCc2cc(O)c(N3CC(=O)NS3(=O)=O)c(F)c2C1 , thanks. < 5.00

* * *

Molecular target: Flt1 (Homo sapiens)
Sequence (P17948 whole entry): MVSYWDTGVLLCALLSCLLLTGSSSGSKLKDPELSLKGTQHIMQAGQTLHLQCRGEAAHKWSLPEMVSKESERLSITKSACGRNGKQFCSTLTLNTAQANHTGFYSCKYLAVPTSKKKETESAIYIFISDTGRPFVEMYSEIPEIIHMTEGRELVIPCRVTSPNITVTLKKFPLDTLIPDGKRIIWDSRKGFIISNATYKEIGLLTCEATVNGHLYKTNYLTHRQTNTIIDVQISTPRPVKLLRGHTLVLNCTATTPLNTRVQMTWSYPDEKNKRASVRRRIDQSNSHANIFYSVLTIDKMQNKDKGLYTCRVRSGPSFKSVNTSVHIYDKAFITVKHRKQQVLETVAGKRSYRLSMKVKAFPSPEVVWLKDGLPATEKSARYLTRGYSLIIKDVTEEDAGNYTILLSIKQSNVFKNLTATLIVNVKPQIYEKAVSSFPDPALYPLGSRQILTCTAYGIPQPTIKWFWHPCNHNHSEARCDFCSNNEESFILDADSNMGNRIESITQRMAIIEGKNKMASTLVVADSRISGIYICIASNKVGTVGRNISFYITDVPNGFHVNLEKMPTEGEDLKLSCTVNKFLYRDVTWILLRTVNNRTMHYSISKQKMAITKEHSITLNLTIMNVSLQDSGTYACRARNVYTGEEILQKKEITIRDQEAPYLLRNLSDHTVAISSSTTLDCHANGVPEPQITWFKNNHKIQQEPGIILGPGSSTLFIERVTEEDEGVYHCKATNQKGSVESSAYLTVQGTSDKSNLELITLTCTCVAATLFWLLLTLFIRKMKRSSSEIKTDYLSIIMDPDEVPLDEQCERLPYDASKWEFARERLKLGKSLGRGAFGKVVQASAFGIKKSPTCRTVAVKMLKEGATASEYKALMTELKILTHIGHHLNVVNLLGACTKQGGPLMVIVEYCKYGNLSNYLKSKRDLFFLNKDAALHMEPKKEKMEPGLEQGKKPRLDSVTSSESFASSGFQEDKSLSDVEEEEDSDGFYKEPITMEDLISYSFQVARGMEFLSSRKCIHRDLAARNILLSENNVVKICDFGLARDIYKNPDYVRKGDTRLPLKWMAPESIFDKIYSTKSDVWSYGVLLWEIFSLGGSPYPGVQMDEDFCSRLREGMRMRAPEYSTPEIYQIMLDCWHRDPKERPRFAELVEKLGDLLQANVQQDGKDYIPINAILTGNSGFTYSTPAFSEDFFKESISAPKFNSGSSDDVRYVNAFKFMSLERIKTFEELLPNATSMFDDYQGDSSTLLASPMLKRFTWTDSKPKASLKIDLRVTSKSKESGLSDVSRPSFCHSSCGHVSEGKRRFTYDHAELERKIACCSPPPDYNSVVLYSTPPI
testReadout: IC50

If you can, please state the reported IC50 value of CC(C)CCN[C@@H]1CCc2cc(O)c(N3CC(=O)NS3(=O)=O)c(F)c2C1 . > 10 µM

The measured values listed here are drawn from paper PMC10599993.
